B1: LINE1-mini (parent)
chain: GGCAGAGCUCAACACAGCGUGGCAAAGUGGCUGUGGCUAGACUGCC

- Variants of: B1
- Protocol details: self-cleavage, relative activity (ratio to wild type); higher = more cleavage; in vitro, sequencing; the parent is a self-cleaving ribozyme
Here the recorded self-cleavage is given for each entry.

Chain sequence: CGCAGAGCUCAACACAGCGUGGCAAAGUGGCUGCGGCUAGACUGCC [G1C U34C]
self-cleavage: 0.03
--
Chain sequence: GGCAGAGGUCAACACAGCGUGGCAAAGUGGCUGUGGCUAGACUUCC [C8G G44U]
self-cleavage: 0.04
--
Chain sequence: GGCAGAGCCCAACACAGCGUGGCAAAGUAGCUGUGGCUAGACUGCC [U9C G29A]
self-cleavage: 0.02
--
Chain sequence: GGCAGAGCUCAACACAGCGUGGCAAAGUCGCUGUGUCUAGACUGCC [G29C G36U]
self-cleavage: 0.04
--
Chain sequence: GGCAGAGCUCAACACAGCGUGGCAAAGUCGCUGUGGCUAGCCUGCC [G29C A41C]
self-cleavage: 0.04
--
Chain sequence: GGCAGAACUCAACACAGCGUGGCAAAGUGGCUGUGGCUAGGCUGCC [G7A A41G]
self-cleavage: 0.12
--
Chain sequence: GGCUGAGCUCAACACAGGGUGGCAAAGUGGCUGUGGCUAGACUGCC [A4U C18G]
self-cleavage: 0.08
--
Chain sequence: GGCAGAGCUCAACACAGCCUGGCAAAGUGGCUGGGGCUAGACUGCC [G19C U34G]
self-cleavage: 0.14
--
Chain sequence: GGCAGAGCUCAACACAGCGUGGCAAAGUGGCUCUGGUUAGACUGCC [G33C C37U]
self-cleavage: 0.05
--
Chain sequence: GGCAGAGCUCAACACGGCGUGGCAAAUUGGCUGUGGCUAGACUGCC [A16G G27U]
self-cleavage: 0.68
--
Chain sequence: GGCAGAGCACAACACAGCGUGGCAAAAUGGCUGUGGCUAGACUGCC [U9A G27A]
self-cleavage: 0.1
--
Chain sequence: GACAGAGCUCAACACAGCGUGGCAAAGCGGCUGUGGCUAGACUGCC [G2A U28C]
self-cleavage: 0.64
--
Chain sequence: GGCAGAGCCCAACACAGCGUGGCAAAUUGGCUGUGGCUAGACUGCC [U9C G27U]
self-cleavage: 0.04
--
Chain sequence: GGCAGAGCUCAACACAGCGUGGCAAAGUGGCUGUGGCUGGACUUCC [A39G G44U]
self-cleavage: 0.22
--
Chain sequence: GGCAGUGCUCAAUACAGCGUGGCAAAGUGGCUGUGGCUAGACUGCC [A6U C13U]
self-cleavage: 0.11
--
Chain sequence: GGCAGUGCUCAACACAGCAUGGCAAAGUGGCUGUGGCUAGACUGCC [A6U G19A]
self-cleavage: 0.64
--
Chain sequence: GGCUGAGCUCAACACAGCGUGGCAAAGCGGCUGUGGCUAGACUGCC [A4U U28C]
self-cleavage: 0.32
--
Chain sequence: GGCAGAGCUCAAAACAGCGUGGCAAAGUGGCUGUGGCUACACUGCC [C13A G40C]
self-cleavage: 0.07
--
Chain sequence: GGAAGAGCUCAACACAGCGUGGCAAAGUGUCUGUGGCUAGACUGCC [C3A G30U]
self-cleavage: 0.61
--
Chain sequence: GGCAGAGCUCAACACAGCGUGGCAAAGUGGGUGUGGCUGGACUGCC [C31G A39G]
self-cleavage: 0.03
--
Chain sequence: GGCAGAUCUCAACACAGCGUGGCAAAGUGGCUGUGGCUAGACCGCC [G7U U43C]
self-cleavage: 0.18
--
Chain sequence: GGCAGAGCUCAACACAACGUGGCAAAGUGGCUGUUGCUAGACUGCC [G17A G35U]
self-cleavage: 0.05
--
Chain sequence: GGCAGAGCUCCACACAGCAUGGCAAAGUGGCUGUGGCUAGACUGCC [A11C G19A]
self-cleavage: 0.05
--
Chain sequence: GGCAGAGCUCACCACAGCGUGGCAAAGUGGCUGUGGCUAUACUGCC [A12C G40U]
self-cleavage: 0.03
